# EXPERIMENT NOTES: Quantitative High-Throughput drug screen in 47 multiple myeloma cell lines against the NCATS MIPE library collection: KMS12PE_JCRB cell viability assay (AID 1918972); note: nearly all actives have a fitted effect of over 30% in size
# MEASUREMENT CONTEXT: KMS12PE myeloma viability, CellTiter-Glo ATP, 48 h; series mostly up to 45.8 µM
Results filed as inconclusive are left out. Activity calls are given as the source filed them. Calls come from the whole dose curve; as a rule, active = well fitted cell-killing curve with a large enough effect; inconclusive = small, poorly fitted or top-dose-only effect, or effect the other way; inactive = no such curve, though single readings can be large or run the other way.
Outcome codes: active, inactive

{"columns": ["COMPOUND STRUCTURE", "CLASS"],
 "data": [
  ["CC(C)(Cc1ccc2ccccc2c1)NC[C@@H](O)COc1cccc(Cl)c1C#N", "inactive"],
  ["O=C(Nc1ccccc1-c1cn2c(CN3CCNCC3)csc2n1)c1cnc2ccccc2n1", "inactive"],
  ["CC=CCC=CCCC(=O)[C@H]1O[C@@H]1C(N)=O", "active"],
  ["N#C[C@H]1C[C@H]2C[C@@H]2N1C(=O)[C@@H](N)C12CC3CC(CC(O)(C3)C1)C2", "inactive"],
  ["CO[C@H]1C=CC=C(C)C(=O)NC2=CC(=O)C(NCCN(C)C)=C(C[C@@H](C)C[C@H](OC)[C@@H](O)[C@@H](C)C=C(C)[C@@H]1OC(N)=O)C2=O", "active"],
  ["COCCCCC(=NOCCN)c1ccc(C(F)(F)F)cc1", "inactive"],
  ["COc1cc(O)c2c(c1)C(=O)c1cc(C)cc(O)c1C2=O", "inactive"],
  ["CCc1ccc(OCc2ccccc2C(=O)Nc2ccc3nc(C)cc(N)c3c2)cc1", "active"],
  ["CCC(=O)O[C@]1(C(=O)CO)CC[C@H]2[C@@H]3CCC4=CC(=O)CC[C@]4(C)[C@@H]3CC[C@@]21C", "inactive"]
]}
